Values were extracted from PubChem BioAssay.

Quick list: z-score per entry.
experiment: adipocyte viability effects, profiling panel, cell-based, 3T3-L1 adipocytes, calcein-AM fluorescence, 48 h, basal (AID 1163); conditions: 3T3-L1 adipocytes viability, higher = more signal; also: test concentration not given here
readout.type: z-score

O=C1NC(=O)C2C1C=CC(C(O)c1cccs1)N2Nc1ccc(Cl)cc1Cl (stereo unspecified)
-0.191
C=C(COC)C(=O)CC[C@@H](OC(C)=O)c1ccc(CO)o1
0.186
CC(=O)n1cc(C(O)C2C=CC3C(=O)N(c4ccccc4)C(=O)C3N2Nc2ccc([N+](=O)[O-])cc2)c2ccccc21 (stereo unspecified)
-0.479
C=CCNC(=O)[C@H]1[C@@H]2C(=O)O[C@@H](c3ccccc3)[C@@H](c3ccccc3)N2[C@@H](c2ccccc2OCCO)[C@]12C(=O)Nc1ccc(C#CCC(C(=O)OC)C(=O)OC)cc12
-0.72
C=CC[C@@]1(C(=O)NCCN2CCOCC2)N=C(c2ccc(OCCCO)cc2)O[C@@H]1c1ccccc1N=[N+]=[N-]
-0.187
O=C1O[C@H](c2ccccc2)[C@H](c2ccccc2)N2[C@H]1[C@@H](C(=O)N1CCCCCCC1)[C@]1(C(=O)Nc3ccc(C#CCCO)cc31)[C@H]2c1ccccc1OCCO
0.911
COCCOC(=O)N1C(=O)[C@@]2(c3cc(C#CCCO)ccc31)[C@H](C(=O)N1CCCCCCC1)[C@H]1C(=O)O[C@H](c3ccccc3)[C@H](c3ccccc3)N1[C@@H]2c1ccc(OCCO)cc1
1.74
O=C1C[C@@](C(=O)NCCN2CCOCC2)(c2ccc([N+](=O)[O-])cc2)[C@@H](c2ccc(CO)cc2I)N1CC12CC3CC(CC(C3)C1)C2
0.546
CO[C@H]1O[C@H](CO)[C@@H](OC(=O)Nc2cccc(F)c2)[C@H](OC(=O)Nc2ccccc2)[C@@H]1OC(=O)Nc1ccccc1
0.18
CCCC[C@@H]1C[C@H]1[C@@H](NC(=O)c1ccco1)c1ccc(-c2ccccc2)cc1
0.222
CCC[C@@H]1C[C@@]1(CCC)[C@@H](NS(=O)(=O)c1cccc2cccnc12)c1ccc(Cl)cc1
-1.13
C=CCC(OC(C)=O)[C@@H]1[C@@H](N(Cc2cc3ccccc3o2)C(=O)c2cccc3ccccc23)c2cc(OCCCO)ccc2N1C(=O)c1ccc(-c2ccccc2)cc1 (stereo partly specified)
0.509
CCCC[C@@H]1C[C@H]1[C@@H](NC(=O)C(C)(C)C)c1ccc(C(F)(F)F)cc1
0.434
COC(=O)[C@@]1(Cc2ccc(F)cc2)[C@H]2c3cc(C(=O)N4CCCC4)n(Cc4ccc(S(C)(=O)=O)cc4)c3C[C@H]2CN1C(=O)c1ccccc1
0.582
C=C(C)[C@@H]1CC=C(C(O)C2C=CC3C(=O)N(c4ccccc4)C(=O)C3N2Nc2ccccc2)CC1 (stereo partly specified)
-0.63
COC(=O)[C@@]1(Cc2ccc(F)cc2)[C@H]2c3cc(C(=O)N4CCCC4)n(CCCNc4ncc(C(F)(F)F)cc4Cl)c3C[C@H]2CN1C(=O)c1ccccc1
-0.68
O=C1O[C@H](c2ccccc2)[C@H](c2ccccc2)N2[C@H]1[C@@H](C(=O)N1CCCCCCC1)[C@]1(C(=O)Nc3ccc(C#CC4=CCCCC4)cc31)[C@H]2c1ccc(OCCO)cc1
1.67
COCCOC(=O)N1C(=O)[C@@]2(c3ccccc31)[C@H](c1ccc(O)cc1)N1[C@H](c3ccccc3)[C@H](c3ccccc3)OC(=O)[C@H]1[C@@H]2C(=O)Nc1nc2ccccc2s1
0.267
COCCCNC(=O)[C@]1(CCC(=O)OC(C)(C)C)N=C(c2ccc(OCCCO)cc2)O[C@@H]1c1ccccc1CN=[N+]=[N-]
-0.579
COC(=O)C(CC#Cc1ccc2c(c1)[C@]1(C(=O)N2)[C@H](c2ccc(OCCO)cc2)N2[C@H](c3ccccc3)[C@H](c3ccccc3)OC(=O)[C@H]2[C@@H]1C(=O)N1CCc2cc(OC)c(OC)cc2C1)C(=O)OC
1.16
CC(C)C[C@@H]1NC(=O)[C@@H]2C[C@H](C(=O)NCc3ccc(F)cc3)[C@H](c3cccc(OCCO)c3)N2C1=O
-0.613
Cc1ccccc1C(O)C1C=CC2C(=O)N(c3ccccc3)C(=O)C2N1Nc1ccc(C(C)C)cc1 (stereo unspecified)
-0.127
C=C(COC)/C(=C/C[C@@H](OC(C)=O)c1ccc(OCCO)cc1)c1cnc2ccccc2c1
1.86
O=C1O[C@@H](c2ccccc2)[C@@H](c2ccccc2)N2[C@@H](c3ccccc3OCCO)[C@]3(C(=O)Nc4ccccc43)[C@@H](C(=O)Nc3nc4ccccc4s3)[C@H]12
1.18
COCCOC(=O)N1C(=O)[C@@]2(c3cc(C#CCNC(N)=O)ccc31)[C@H](C(=O)Nc1nc3ccccc3s1)[C@H]1C(=O)O[C@H](c3ccccc3)[C@H](c3ccccc3)N1[C@@H]2c1ccc(OCCO)cc1
1.2
NC(=O)NCC#Cc1ccc2c(c1)[C@]1(C(=O)N2)[C@H](c2ccc(O)cc2)N2[C@H](c3ccccc3)[C@H](c3ccccc3)OC(=O)[C@H]2[C@@H]1C(=O)O
0.145

====

Quick list: z-score per entry.
test: splicing luciferase reporter signal modulators, primary screen, spliceosome inhibition project, cell-based, HEK293, splice +/- reporter (AID 1101); details: luminescence, 24 h, higher = more signal, called active from +8 up or from −8 down;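 also: HEK293 cells carrying a splicing-competent luciferase reporter gene; test concentration not given here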
readout.type: z-score

COCCOC(=O)N1C(=O)[C@@]2(c3cc(C#CCNC(N)=O)ccc31)[C@H](C(=O)N1CCN(c3ncccn3)CC1)[C@H]1C(=O)O[C@H](c3ccccc3)[C@H](c3ccccc3)N1[C@@H]2c1ccc(OCCO)cc1
-0.729
O=C1C2C=CC(C(O)c3cccc4ccccc34)N(Nc3ccccc3F)C2C(=O)N1c1ccccc1 (configuration not stated)
-0.05
COc1ccc(C#Cc2ccc3c(c2)[C@]2(C(=O)N3)[C@H](c3ccccc3OCCO)N3[C@H](c4ccccc4)[C@H](c4ccccc4)OC(=O)[C@H]3[C@@H]2C(=O)Nc2nc3ccccc3s2)cc1
-1.11
CC(C)NC(=O)[C@@H]1c2ccccc2C(=O)N(C2Cc3ccccc3C2)[C@H]1c1ccc(CO)cc1
-0.535
CCC(CC)C(O)C1C=CC2C(=O)NC(=O)C2N1Nc1ccccn1 (configuration not stated)
1.17
C=C(C)[C@@H]1CC=C(C(O)C2C=CC3C(=O)N(c4ccccc4)C(=O)C3N2Nc2ccccc2)CC1 (some centres not stated)
0.0541
O=C1C2C=CC(C(O)CCc3ccccc3)N(Nc3ccccc3F)C2C(=O)N1c1ccccc1 (configuration not stated)
-0.0383
COCCCNC(=O)[C@@]1(C)c2ccccc2C(=O)N(C(C)C)[C@H]1c1ccc(CO)cc1
-0.373
CCCCC(CC)C(O)C1C=CC2C(=O)N(Cc3ccccc3)C(=O)C2N1n1cnnc1 (configuration not stated)
-0.44
C=CCOC(=O)[C@H]1[C@@H]2C(=O)O[C@@H](c3ccccc3)[C@@H](c3ccccc3)N2[C@@H](c2ccc(OCCOC(=O)[C@H]3C[C@H]4C(=O)N[C@@H](CCCCN(C)C)C(=O)N4[C@H]3c3ccc(O)cc3)cc2)[C@]12C(=O)Nc1ccc(I)cc12
0.426
[N-]=[N+]=NCc1ccccc1C[C@]1(C(N)=O)COC(c2ccc(OCCCO)cc2)=N1
-1.52
CCCC[C@H]1OB(O)C[C@H]2C1=C(COC)C[C@H]1C(=O)N(C)C(=O)[C@H]12
0.377
COc1ccc([C@H]2OC[C@@H]3C[C@@H](Cc4ccccc4)C(=O)N32)cc1
0.247
C[C@H]1C2[C@H](Cc3ccccc3)NC(=O)[C@]23C(=O)N[C@H](Cc2ccccc2)C(=O)N2CCC[C@H]2C(=O)NC/C=C\C/C=C/C3[C@@H]2O[C@]12C (some centres not stated)
-0.925
NC(=O)NCC#Cc1ccc2c(c1)[C@]1(C(=O)N2)[C@H](C(N)=O)[C@H]2C(=O)O[C@H](c3ccccc3)[C@H](c3ccccc3)N2[C@@H]1c1ccc(O)cc1
-0.712
C=CCOC(=O)[C@@H]1[C@H]2C(=O)O[C@H](c3ccccc3)[C@H](c3ccccc3)N2[C@H](c2ccc(OCCOC(=O)[C@@H]3C[C@@H]4C(=O)NCC(=O)N4[C@@H]3c3ccc(O)cc3)cc2)[C@@]12C(=O)Nc1ccc(I)cc12
-0.603
NC(=O)NCC#Cc1ccc2c(c1)[C@]1(C(=O)N2)[C@H](c2ccc(O)cc2)N2[C@H](c3ccccc3)[C@H](c3ccccc3)OC(=O)[C@H]2[C@@H]1C(=O)O
0.307
NC(=O)[C@@H]1[C@H]2C(=O)O[C@H](c3ccccc3)[C@H](c3ccccc3)N2[C@H](c2ccc(O)cc2)[C@@]12C(=O)Nc1ccccc12
-0.936
C=C[C@H](C)[C@@H](OC(=O)Nc1ccc(OC)cc1)c1ccc(O)c2ccccc12
2.41
COCCOC(=O)N1C(=O)[C@@]2(c3cc(C#Cc4ccc(OC)cc4)ccc31)[C@H](c1ccc(OCCO)cc1)N1[C@H](c3ccccc3)[C@H](c3ccccc3)OC(=O)[C@H]1[C@@H]2C(=O)N1CCN(c2ncccn2)CC1
-0.449
CN(C)CCCCCCNC(=O)[C@@H]1C[C@@H]2C(=O)N[C@@H](Cc3ccccc3)C(=O)N2[C@@H]1c1ccc(O)cc1
-0.926
C=CC1(C(=O)OC)CC=C(C(=O)OC)CC1 (configuration not stated)
-1.38
CCOC(=O)[C@H]1C/C=C/C[C@H](C(=O)OCC)C(=O)O[C@H]2[C@@H](OC)O[C@H](CO)[C@@H](OC(=O)c3c(OC)cccc3OC)[C@@H]2OC1=O
0.837
COCCOC(=O)N1C(=O)[C@@]2(c3cc(C#Cc4ccc(OC)cc4)ccc31)[C@H](c1ccc(O)cc1)N1[C@H](c3ccccc3)[C@H](c3ccccc3)OC(=O)[C@H]1[C@@H]2C(=O)N1CCc2cc(OC)c(OC)cc2C1
-1.34
COc1ccc(CCNC(=O)[C@@]2(Sc3ccc(C)cc3)CC(=O)N(C3Cc4ccccc4C3)[C@@H]2c2ccc(CO)cc2I)cc1
-1.27
COc1ccc(C#Cc2ccc3c(c2)[C@]2(C(=O)N3)[C@H](C(=O)Nc3nc4ccccc4s3)[C@H]3C(=O)O[C@H](c4ccccc4)[C@H](c4ccccc4)N3[C@@H]2c2ccc(O)cc2)cc1
-0.444
COc1cc(COC(C)=O)ccc1OC(C)=O
-0.309
